Provenance of the data: ChEMBL document CHEMBL3988442

Tested on: Plasmodium falciparum
assay overview: Calibr Malaria Delayed Death Assay SOP
Type: functional, organism-based
# Lookup of reported pIC50 keyed by entry
attribute measured: pIC50

# molecule, observed
records = [
    ("Clc1ccc(C2(CNC3=NCCN3)CCCC2)cc1.I", 6.736),
    ("NC1(C(=O)NCC2CCCN(Cc3ccccc3F)C2)CCCC1 (stereo not drawn)", 6.224),
    ("Cn1cc(CN2CCCC(CCc3ccc(F)cc3)C2)cn1 (stereo not drawn)", 5.962),
    ("CCN(Cc1c(F)cccc1Cl)c1cc(C2CCNCC2)nc(C)n1", 6.254),
    ("C=Cc1cccc(CN2C[C@@H](CN(C)CC)[C@@H](CO)C2)c1", 5.976),
    ("COc1ccc(Cn2nnnc2SCC2CCCN(C)C2)cc1 (stereo not drawn)", 5.834),
    ("Fc1ccc(Sc2ccccc2CNC2=NCCN2)cc1.I", 5.875),
    ("Cc1nccn1CCCN1CCCC(c2ccccc2)C1 (stereo not drawn)", 6.639),
    ("Fc1ccccc1C1(CNC2CCOC3(CCOCC3)C2)CCCC1 (stereo not drawn)", 6.12),
    ("CCC(C)(C)n1nnnc1C(c1cccs1)N1CCc2ccccc2C1 (stereo not drawn)", 6.38),
    ("CN[C@@H]1CCC[C@@H](Oc2ccccc2Oc2ccc(C)cc2)[C@@H]1O", 6.476),
    ("c1ccc(Oc2nccc3occc23)c(CN2CCCCC2)c1", 6.272),
    ("CN(C)CCN(Cc1cccnc1)C(=O)c1ccn(-c2ccccc2)n1", 5.955),
    ("Cl.NC1CCc2nc(-c3cccnc3)nc(Nc3ccc(F)cc3)c2C1 (stereo not drawn)", 6.698),
    ("O=C(C(CNCc1ccsc1)c1ccccc1)N1CCOCC1 (stereo not drawn)", 6.002),
    ("COc1c(C)cnc(CN2CCC(N(C)C(C)C(N)=O)CC2)c1C (stereo not drawn)", 6.018),
    ("O=C(O)C(F)(F)F.O=C(O)C(F)(F)F.O=C(O)C(F)(F)F.c1ccc(CN2CCCC3(CCN(Cc4cccs4)C3)C2)nc1 (stereo not drawn)", 6.204),
    ("OC1(CN2CCC(Oc3cccc(C(F)(F)F)c3)CC2)CCNC1 (stereo not drawn)", 6.152),
]

---

assay overview: microbe, parasite or virus in culture
measurement conditions: Mycobacterium tuberculosis, 96 h, read-out: pIC50 (converted)
# binning rule on IC50: bottom end: < 30 µM; midrange: ≥ 30 µM and < 300 µM; top end: ≥ 300 µM

# molecule, assigned category
data = [
    ("CC(=O)N1CCCC(c2ccc(Cc3ccccc3)cn2)C1 (stereo unspecified)", "bottom end"),
    ("O=C(CSCc1ccc(Cl)s1)N1CCOCC1", "midrange"),
    ("CC(O)CNCCNCc1ccc(-c2ccccc2)o1 (stereo unspecified)", "midrange"),
    ("Cc1onc(N)c1S(=O)(=O)NCc1ccccc1Cl", "top end"),
    ("O=C(NCC1CC1)c1nnc2ccc(Cl)cc2n1", "bottom end"),
    ("CC(C)Oc1cccc(-c2cnn(CCC(N)=O)c2)c1", "top end"),
    ("NC1CCN(c2ncc(C(F)(F)F)cc2Cl)C1 (stereo unspecified)", "midrange"),
    ("OC(CN1CCn2ccnc2C1)c1ccc(Cl)cc1 (stereo unspecified)", "top end"),
    ("CN(CCc1ccccc1)CCS(=O)(=O)CCC(N)=O", "midrange"),
    ("c1ccc(-c2noc(CN3CCCC3)n2)cc1", "midrange"),
    ("COc1ccccc1-c1ncc(CN2C[C@@H](N(C)C)[C@H](C(C)C)C2)s1", "bottom end"),
    ("Cc1noc(C(C)Nc2ccc3c(c2)CCC3)n1 (stereo unspecified)", "bottom end"),
    ("COc1cc(Br)ccc1CCCNC(=O)c1c[nH]nn1", "top end"),
    ("O=C(c1cc(COc2ccc3c(c2)OCO3)[nH]n1)N1CCCCO1", "bottom end"),
    ("CCNC(=O)c1ccn(-c2ccccc2)n1", "midrange"),
    ("OCC(O)CSCCc1ccccc1Cl (stereo unspecified)", "top end"),
    ("Cc1ccc(OCC(=O)NC2(C#N)CCSCC2)cc1C", "bottom end"),
    ("CCCNc1cc(-n2cccn2)ncn1", "midrange"),
]

---

Tested on: Plasmodium falciparum
assay overview: Calibr Malaria Delayed Death Assay SOP
Assay type: functional, organism-based
# Lookup of reported pIC50 keyed by entry

# compound, pIC50
rows = [
    ("CCc1cc(CNCc2ccccc2N(C)C2CCN(C)CC2)on1", 6.107),
    ("CN(Cc1cc(F)cc2cccnc12)CC1CCN(CCO)CC1", 6.165),
    ("Cc1cccc2[nH]c(-c3cn(C4CCNCC4)nn3)nc12", 6.226),
    ("CN(C)c1nc2c(c(NCc3cc(O)ncn3)n1)CCCC2", 6.202),
    ("O=C(Nc1ccc(OC2CCCC2)cc1)C1CCCN1c1nccs1 (configuration not stated)", 7.074),
    ("CCOc1ccc(Cl)cc1C1CCCCN1.Cl (configuration not stated)", 6.229),
    ("Nc1nc2c(c(N3CCCC(c4nnc5ccccn45)C3)n1)CCNC2 (configuration not stated)", 6.831),
    ("Cl.NCC1(c2cccc(Br)c2)CCOCC1", 6.127),
    ("CC(NCC1CCN(CCO)CC1)c1ccc(OC(F)(F)F)cc1 (configuration not stated)", 6.465),
    ("Cc1ccc(CNC(C)c2cc(F)ccc2N2CCN(C)CC2)o1 (configuration not stated)", 6.454),
    ("CCN1CCCC(CNC(=O)C2(c3cc(C)cc(C)c3)CCC2)C1 (configuration not stated)", 6.008),
    ("O=C(CC1CCCC1)NCCNCc1cccc2c1OCCO2", 6.128),
]

---

assay overview: microbe, parasite or virus in culture
measurement conditions: Mycobacterium tuberculosis, 72 h, read-out: pIC50 (converted)

# compound, bound operator, IC50 (µM)
measured = [
    ("O=C(CCSc1ccc(F)cc1)N1CCN(c2cnccn2)CC1", ">", 50.1),
    ("Cc1nsc(C(=O)NCCCc2ccccc2)n1", ">", 50.1),
    ("CCOC1COC2(CCN(Cc3ccc4c(c3)OCO4)CC2)C1 (centres undefined)", ">", 50.1),
    ("O=C(NCc1ccc(CO)cc1)C1CCOc2ccccc2C1 (centres undefined)", ">", 50.1),
    ("NCCn1nc(C2CCN(Cc3ccccc3Cl)C2)c2nccnc21 (centres undefined)", ">", 50.1),
    ("CS(=O)(=O)CCCNC1(c2cccc(Cl)c2)CCCC1", ">", 50.1),
    ("CS(=O)(=O)CCC(=O)N1C[C@@H]2CC[C@H](C1)N(Cc1ccccc1)C2=O", ">", 50.1),
    ("CNCCc1ccccc1OC", "=", 74.4),
    ("CCC(C)(C)NC(=O)c1nn(-c2ccccc2)nc1C", "=", 199),
    ("O=C1COC2(CCN(c3ccccn3)CC2)CN1", ">", 50.1),
    ("CC(=O)Nc1ccc(C(=O)N(C)Cc2cccs2)cc1", "=", 307),
    ("Cc1cc(C(=O)N2CCN(c3nc4c(C(C)C)cccc4s3)CC2)on1", "=", 21.3),
    ("COc1ccc(-c2nc(CN(C)Cc3nncn3C)c(C)o2)c(C)c1C", "=", 42.9),
    ("N[C@H]1CC[C@H](Oc2ncccc2Cl)CC1", "=", 125),
]

---

assay overview: microbe, parasite or virus in culture
measurement conditions: Mycobacterium tuberculosis, 72 h, read-out: pIC50 (converted)

# molecule, IC50
data = [
    ("NC(=O)COc1cccc(CN2CCC(F)CC2)c1", "> 501 µM"),
    ("CCCC1C=CCN1C(=O)c1cc(COc2ccc3c(c2)OCO3)[nH]n1 (stereo not given)", "> 50.1 µM"),
    ("N#CCCCn1nnnc1Cc1ccc(Br)cc1", "> 50.1 µM"),
    ("O=C(c1cccc2cc[nH]c12)N1CCSCC1", "> 501 µM"),
    ("COC(=O)CCNS(=O)(=O)c1ccc(OC)cc1", "> 501 µM"),
    ("CC(C)NC(=O)c1ccc(N2CCCCC2=O)cc1", "> 501 µM"),
    ("Cc1nc(NCCSc2cnn[nH]2)c2c(C)noc2n1", "> 50.1 µM"),
    ("O=C(NCCc1ccc(F)c(F)c1)N1CCCC(O)C1 (stereo not given)", "> 501 µM"),
    ("CN(CCc1cccs1)C1CCCN(Cc2noc(C3CC3)n2)C1 (stereo not given)", "> 50.1 µM"),
    ("N#Cc1ccc(NCc2cccc(COC3CCOCC3)c2)nc1", "> 50.1 µM"),
]

---

assay overview: microbe, parasite or virus in culture
measurement conditions: Mycobacterium tuberculosis, 72 h, read-out: pIC50 (converted)
attribute measured: IC50

# compound, attribute measured, observed
data = [
    ("CCN1CCN(S(=O)(=O)c2c[nH]c(C(C)C)n2)c2ccccc21", "IC50", "> 50.1 µM"),
    ("Cc1cc(CN(C)CC2(O)CCCN(CCC3CCCCC3)C2=O)no1 (stereo unspecified)", "IC50", "> 50.1 µM"),
    ("CN(Cc1cnccn1)S(=O)(=O)c1ccc(C(F)(F)F)nc1", "IC50", "> 50.1 µM"),
    ("c1csc(CN2CC(c3nc(-c4cnccn4)no3)C2)c1", "IC50", "> 50.1 µM"),
    ("CN(C)CCN1CCOCC2(C1)CN(Cc1ccsc1)CCO2 (stereo unspecified)", "IC50", "> 50.1 µM"),
    ("O=C(NCCc1cccnc1)c1cc(C2CC2)on1", "IC50", "> 501 µM"),
    ("NC(=O)c1cc(C2CCCN(C(=O)CCc3ccncc3)C2)n[nH]1 (stereo unspecified)", "IC50", "> 50.1 µM"),
    ("CCc1ccccc1CN1C(=O)CCC1=O", "IC50", "> 501 µM"),
    ("c1cncc(CN2CCCC(c3nnc(-c4cnccn4)o3)C2)c1 (stereo unspecified)", "IC50", "> 50.1 µM"),
    ("O=C(c1ccno1)N1CCOC[C@H](Oc2ccc(C(F)(F)F)cc2)C1", "IC50", "> 50.1 µM"),
    ("Cc1cc2nc(C(C)C)cc(N(C)CC3CCN(C(C)C)C3)n2n1 (stereo unspecified)", "IC50", "> 50.1 µM"),
]
